Values compiled from ChEMBL document CHEMBL1152543.

test system: Jurkat; experiment: Cytotoxicity against human Jurkat cells at 20 uM after 72 hrs by XTT assay; type: functional, cell-based
Active and inactive are the calls of the source. No cut-off for these calls is given here.
RECORDED METRIC: Activity

Before answering, review these 5 worked examples.
C[C@@H](C=O)[C@@H]1CC[C@]2(COC(=O)n3ccnc3)CC[C@]3(C)[C@H](CC[C@@H]4[C@@]5(C)CC[C@H](O)C(C)(C)[C@@H]5CC[C@]43C)[C@@H]12 : Active
C=C(C)[C@@H]1CC[C@]2(C(=O)O)CC[C@]3(C)[C@H](CC[C@@H]4[C@@]5(C)CC[C@H](O)C(C)(C)[C@@H]5CC[C@]43C)[C@@H]12 [BETULINIC ACID] : Active
C=C(COC)[C@@H]1CC[C@]2(COC(=O)n3ccnc3)CC[C@]3(C)[C@H](CC[C@@H]4[C@@]5(C)CC[C@H](O)C(C)(C)[C@@H]5CC[C@]43C)[C@@H]12 : Active
C=C(C)[C@@H]1CC[C@]2(C(=O)O)CC[C@]3(C)[C@H](CC[C@@H]4[C@@]5(C)CC[C@H](OC(=O)n6ccnc6)C(C)(C)[C@@H]5CC[C@]43C)[C@@H]12 : Active
C=C(C)[C@@H]1CC[C@]2(C(=O)n3ccnc3)CC[C@]3(C)[C@H](CC[C@@H]4[C@@]5(C)C=C(O)C(=O)C(C)(C)[C@@H]5CC[C@]43C)[C@@H]12 : Active

Fill in Activity for C=C(C)[C@@H]1CC[C@]2(COC(=O)n3ccnc3)CC[C@]3(C)[C@H](CC[C@@H]4[C@@]5(C)CC[C@H](O)C(C)(C)[C@@H]5CC[C@]43C)[C@@H]12 tested with Jurkat.
Active

* * *

I'd appreciate it if you could supply pIC50 values for the items below.
system: HeLa; experiment: Cytotoxicity against human HeLa cells after 72 hrs by MTT assay; type: functional, cell-based
Remember, pIC50 is on a log scale: it is -log10 of the molar concentration.

Please tell me the measured pIC50 for C[C@@H](C=O)[C@@H]1CC[C@]2(COC(=O)n3ccnc3)CC[C@]3(C)[C@H](CC[C@@H]4[C@@]5(C)CC[C@H](OC(=O)n6ccnc6)C(C)(C)[C@@H]5CC[C@]43C)[C@@H]12 ; system: HeLa.
4.72

Recall the reported pIC50 of C=C(C)[C@@H]1CC[C@]2(C(=O)OC)CC[C@]3(C)[C@H](CC[C@@H]4[C@@]5(C)CC[C@H](OC(=O)n6ccnc6)C(C)(C)[C@@H]5CC[C@]43C)[C@@H]12 on HeLa and write it down.
5.09

Quote HeLa pIC50 for entry C[C@@H](C=O)[C@@H]1CC[C@]2(COC(=O)n3ccnc3)CC[C@]3(C)[C@H](CC[C@@H]4[C@@]5(C)CC[C@H](O)C(C)(C)[C@@H]5CC[C@]43C)[C@@H]12 .
4.95

* * *

tested on: MIA PaCa-2; assay: Cytotoxicity against human MIAPaCa2 cells at 20 uM after 72 hrs by MTT assay; format: functional, cell-based
The source made the active and inactive calls. No cut-off for these calls is given here.
RECORDED METRIC: Activity

C=C(C)[C@@H]1CC[C@]2(COC(=O)n3ccnc3)CC[C@]3(C)[C@H](CC[C@@H]4[C@@]5(C)CC[C@H](O)C(C)(C)[C@@H]5CC[C@]43C)[C@@H]12 : Active
C[C@@H](C=O)[C@@H]1CC[C@]2(COC(=O)n3ccnc3)CC[C@]3(C)[C@H](CC[C@@H]4[C@@]5(C)CC[C@H](O)C(C)(C)[C@@H]5CC[C@]43C)[C@@H]12 : Active
C=C(C)[C@@H]1CC[C@]2(C(=O)n3ccnc3)CC[C@]3(C)[C@H](CC[C@@H]4[C@@]5(C)C=C(O)C(=O)C(C)(C)[C@@H]5CC[C@]43C)[C@@H]12 : Active
